Taken from patent US7368582B2.

Reported Selectivity factor (AFT:VFT) values follow for various compounds
Test system: hearts of anaesthetised cats
Assay: Atrial and ventricular fibrillation threshold in anaesthetised cats in vivo
Set-up: species or system cat
Applied conditions: anaesthetized cats; dose 30 μmol/kg i.v.
Output spec: single numeric token, no unit.

Study these solved cases before continuing.
CCc1ccc(S(=O)(=O)N[C@@H]2c3cc(CC(=O)N[C@H]4CCCc5ccccc54)ccc3OC(C)(C)[C@H]2O)cc1
7
CCc1ccc(S(=O)(=O)N(CC(C)(C)C)C2c3cc(CC(=O)NCc4ccccc4)ccc3OC(C)(C)C2O)cc1 (centres unmarked)
12
CCc1ccc(S(=O)(=O)N(CC(C)(C)C)C2c3cc(CC(=O)NCCc4ccccc4)ccc3OC(C)(C)C2O)cc1 (centres unmarked)
13
CCc1ccc(S(=O)(=O)NC2c3cc(CC(=O)NC4CCCc5ccccc54)ccc3OC(C)(C)C2O)cc1 (centres unmarked)
3

Now examine the next entry.
Report value: Selectivity factor (AFT:VFT), system: hearts of anaesthetised cats, compound: CCc1ccc(S(=O)(=O)N[C@@H]2c3cc(CC(=O)N[C@@H]4CCCc5ccccc54)ccc3OC(C)(C)[C@H]2O)cc1
17
